Collected residual activity values appear next to each entry.
target: Mitogen-activated protein kinase 9 (Homo sapiens) (UniProt P45984); details: at 1 µM
Sequence (P45984 whole entry, looked up): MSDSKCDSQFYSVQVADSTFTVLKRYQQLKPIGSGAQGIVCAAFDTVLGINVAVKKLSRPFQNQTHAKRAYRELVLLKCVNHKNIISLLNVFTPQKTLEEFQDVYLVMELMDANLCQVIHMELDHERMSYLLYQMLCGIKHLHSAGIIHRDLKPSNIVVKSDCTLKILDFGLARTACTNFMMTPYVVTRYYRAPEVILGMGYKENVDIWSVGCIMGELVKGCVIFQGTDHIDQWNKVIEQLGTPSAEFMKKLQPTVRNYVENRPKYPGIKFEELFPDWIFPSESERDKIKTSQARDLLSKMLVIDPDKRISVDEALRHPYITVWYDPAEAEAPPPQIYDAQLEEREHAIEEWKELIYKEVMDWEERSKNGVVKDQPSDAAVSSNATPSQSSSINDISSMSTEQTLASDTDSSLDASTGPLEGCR
Description: Millipore: Percentage of residual kinase activity of MAPK9 at 1uM relative to control. Control inhibitor: Jnk Inhibitor II at 100.0uM. Buffer: 50 mM Tris pH 7.5, 0.1 mM EGTA, 0.1% ?-mercaptoethanol
Write the quantity with the unit trailing the number.

>>> reported("O=[N+]([O-])c1ccc(-c2nc(-c3ccc(F)cc3)c(-c3ccncc3)[nH]2)cc1")
"68%"

Form field residual activity, entry O=C1Nc2cc(Br)ccc2/C1=C1/Nc2ccccc2/C1=N\O : 79%

So, O=C1c2ccccc2-[n+]2ccc3c([nH]c4ccccc43)c21 ? Its residual activity was 92%

Record summary for N#Cc1cnc2cnc(NCc3cccnc3)cc2c1Nc1ccc(F)c(Cl)c1 : reported residual activity = 95%

Per the record, O=Nc1c(-c2c(O)[nH]c3ccccc23)[nH]c2ccccc12 has residual activity of 55%

Query O=C1Nc2ccccc2/C1=C1/Nc2ccccc2/C1=N\OCCC(O)CO (configuration not stated) yields residual activity of 43%

Kindly note the recorded residual activity for O=c1cc(-c2cccc3c2Sc2ccccc2S3)oc(N2CCOCC2)c1 , which is 103%

* * *

Target: Protein kinase C zeta type (Homo sapiens) (UniProt Q05513)
Sequence (whole entry): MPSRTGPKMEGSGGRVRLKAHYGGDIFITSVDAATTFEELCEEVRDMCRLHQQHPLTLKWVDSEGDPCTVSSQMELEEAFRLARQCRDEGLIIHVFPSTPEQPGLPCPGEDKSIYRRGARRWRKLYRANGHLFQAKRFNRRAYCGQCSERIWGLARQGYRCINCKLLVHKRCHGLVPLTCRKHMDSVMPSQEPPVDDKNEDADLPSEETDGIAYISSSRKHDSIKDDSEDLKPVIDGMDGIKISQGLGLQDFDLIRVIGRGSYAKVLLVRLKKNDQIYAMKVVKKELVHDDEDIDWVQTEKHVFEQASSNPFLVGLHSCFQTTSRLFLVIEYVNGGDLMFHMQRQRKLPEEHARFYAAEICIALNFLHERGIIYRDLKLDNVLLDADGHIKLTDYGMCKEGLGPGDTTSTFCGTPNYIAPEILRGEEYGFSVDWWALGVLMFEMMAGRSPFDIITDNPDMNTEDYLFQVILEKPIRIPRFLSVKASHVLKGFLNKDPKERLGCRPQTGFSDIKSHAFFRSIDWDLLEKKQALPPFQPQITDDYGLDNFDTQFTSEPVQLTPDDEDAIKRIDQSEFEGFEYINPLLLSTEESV
Details: at 1 µM
ENDPOINT_LABEL: residual activity (%)
Report the figure in % without appending any unit label.

>>> reported("O=C1Nc2ccc(Br)cc2/C1=C\\c1cc2c([nH]1)CCCC2")
103
>>> reported("CC#CC(=O)Nc1cc2c(Nc3ccc(F)c(Cl)c3)ncnc2cn1")
97
>>> reported("Oc1c2ccccc2c2c3c(cccc13)N=N2")
110

Now let's try a different one.
Reported residual activity ( N#CCCc1ccc2c(c1)-c1[nH]c3ccc([N+](=O)[O-])cc3c1CC(=O)N2 ) = 69

* * *

Reported residual activity values for a set of compounds
biological target: Serine/threonine-protein kinase WNK2 (Homo sapiens) (UniProt Q9Y3S1); conditions: at 10 µM
Sequence (Q9Y3S1 whole entry): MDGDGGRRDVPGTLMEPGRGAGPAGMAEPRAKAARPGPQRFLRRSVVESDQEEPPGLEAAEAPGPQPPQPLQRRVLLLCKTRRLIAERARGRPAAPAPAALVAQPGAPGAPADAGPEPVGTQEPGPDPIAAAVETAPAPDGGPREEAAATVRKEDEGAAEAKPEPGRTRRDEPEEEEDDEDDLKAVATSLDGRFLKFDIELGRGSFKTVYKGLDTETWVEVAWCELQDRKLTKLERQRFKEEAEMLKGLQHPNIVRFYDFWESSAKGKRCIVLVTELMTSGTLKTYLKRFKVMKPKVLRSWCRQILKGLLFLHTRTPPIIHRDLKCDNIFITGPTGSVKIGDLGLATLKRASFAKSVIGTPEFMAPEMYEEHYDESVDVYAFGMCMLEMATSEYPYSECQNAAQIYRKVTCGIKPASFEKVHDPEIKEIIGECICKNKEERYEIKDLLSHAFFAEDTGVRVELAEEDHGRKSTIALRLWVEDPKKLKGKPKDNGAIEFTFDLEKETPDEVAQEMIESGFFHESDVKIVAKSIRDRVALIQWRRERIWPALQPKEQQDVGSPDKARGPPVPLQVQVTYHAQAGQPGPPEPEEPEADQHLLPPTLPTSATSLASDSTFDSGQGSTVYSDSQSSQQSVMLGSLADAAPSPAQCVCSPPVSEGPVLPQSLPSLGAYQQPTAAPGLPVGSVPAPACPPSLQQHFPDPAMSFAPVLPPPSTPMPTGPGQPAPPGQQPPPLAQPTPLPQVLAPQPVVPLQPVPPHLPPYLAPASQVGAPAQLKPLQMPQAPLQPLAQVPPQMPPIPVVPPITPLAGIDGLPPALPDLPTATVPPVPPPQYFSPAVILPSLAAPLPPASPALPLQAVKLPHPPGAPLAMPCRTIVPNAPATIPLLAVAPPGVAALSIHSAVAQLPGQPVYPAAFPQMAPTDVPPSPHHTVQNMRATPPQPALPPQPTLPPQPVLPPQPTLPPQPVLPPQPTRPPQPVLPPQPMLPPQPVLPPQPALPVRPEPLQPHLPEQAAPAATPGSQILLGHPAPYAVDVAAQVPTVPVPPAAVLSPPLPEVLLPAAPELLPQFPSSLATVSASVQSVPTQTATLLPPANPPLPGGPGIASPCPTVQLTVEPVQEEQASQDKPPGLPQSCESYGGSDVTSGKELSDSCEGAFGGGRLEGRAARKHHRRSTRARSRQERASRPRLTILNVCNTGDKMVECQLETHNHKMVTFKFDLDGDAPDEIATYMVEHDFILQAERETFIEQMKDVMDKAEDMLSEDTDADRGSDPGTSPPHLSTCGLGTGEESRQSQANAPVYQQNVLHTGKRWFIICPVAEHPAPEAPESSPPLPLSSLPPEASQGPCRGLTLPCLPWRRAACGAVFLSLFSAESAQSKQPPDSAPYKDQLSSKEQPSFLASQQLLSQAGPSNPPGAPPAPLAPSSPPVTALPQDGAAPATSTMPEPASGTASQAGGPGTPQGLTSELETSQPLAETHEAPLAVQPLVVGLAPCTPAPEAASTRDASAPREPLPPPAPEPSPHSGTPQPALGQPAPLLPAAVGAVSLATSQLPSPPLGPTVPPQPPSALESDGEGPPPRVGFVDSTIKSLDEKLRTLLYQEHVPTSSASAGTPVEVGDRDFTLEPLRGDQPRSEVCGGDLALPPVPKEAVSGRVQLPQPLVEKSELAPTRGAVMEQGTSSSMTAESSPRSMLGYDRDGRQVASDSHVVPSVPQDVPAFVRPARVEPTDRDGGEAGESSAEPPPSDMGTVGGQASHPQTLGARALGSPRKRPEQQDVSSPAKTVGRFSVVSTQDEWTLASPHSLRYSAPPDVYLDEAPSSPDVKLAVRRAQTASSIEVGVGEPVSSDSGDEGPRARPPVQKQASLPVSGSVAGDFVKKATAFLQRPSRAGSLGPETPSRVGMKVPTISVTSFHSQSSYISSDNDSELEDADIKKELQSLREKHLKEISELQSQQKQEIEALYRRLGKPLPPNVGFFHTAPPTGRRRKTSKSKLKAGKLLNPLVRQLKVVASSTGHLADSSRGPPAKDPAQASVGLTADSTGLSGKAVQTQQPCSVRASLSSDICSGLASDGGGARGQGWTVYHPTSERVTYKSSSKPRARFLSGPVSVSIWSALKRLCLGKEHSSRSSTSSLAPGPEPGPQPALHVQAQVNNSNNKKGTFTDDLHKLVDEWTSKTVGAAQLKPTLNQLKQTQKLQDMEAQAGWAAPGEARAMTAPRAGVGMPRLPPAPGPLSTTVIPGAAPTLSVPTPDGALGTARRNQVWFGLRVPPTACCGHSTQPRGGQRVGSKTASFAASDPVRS
Description: Millipore: Percentage of residual kinase activity of WNK2 at 10uM relative to control. Control inhibitor: Phosphoric acid* at 0.3uM. Buffer: 8 mM MOPS pH 7.0, 0.2 mM EDTA
Write the number in % without appending the unit.

These recorded examples may help you get a feel for the data.
>>> reported("COc1cc2ncnc(Nc3ccc(NC(=O)c4ccccc4)cc3)c2cc1OC")
25
>>> reported("O=C(Nc1cccc(Nc2cc(Nc3cccc(C(F)(F)F)c3)ncn2)c1)C1CC1")
81

Moving on to the next compound.
Looking up CC(C)n1cnc2/c(=N/c3cccc(Cl)c3)nc(NCCO)[nH]c21 , I see its residual activity listed as 52
